system: aCD3/aCD28-stimulated human PBMCs; assay: Cytokine production in aCD3/aCD28 stimulated human PBMCs; assay type: cell-based; settings: PBMC, enhancement of IL-2 production, 18 h, read-out: Activity Class IL-2
pEC50: −log10 of the molar value.
measured.endpoint: pEC50

Request: So what does the record say about pEC50 for CCCCNC(=O)c1ccc2c(c1)N(Cc1ccc(OC(F)(F)F)cc1)C(=O)[C@@H](N)CS2.Cl [Example 3, hydrochloride] ?
Result: 5.30 to 5.80

Request: Can you check CC(C)CNNC(=O)c1cc2c(cc1F)SC[C@H](N)C(=O)N2Cc1ccc(Cl)cc1.Cl [Example 60, hydrochloride] next?
Result: 5.30 to 5.80

Request: Can you check Cl.N[C@H]1CS(=O)(=O)c2cc(F)c(C(=O)NC3CCC3)cc2N(Cc2ccc(Cl)cc2)C1=O [Example 86, hydrochloride] next?
Result: 5.30 to 5.80

Request: Can you check CC(NC(=O)c1ccc2c(c1)N(Cc1ccc(Cl)cc1)C(=O)[C@@H](N)CS2)c1ccc(F)cc1.Cl (stereo partly shown) [Example 34, hydrochloride] next?
Result: 5.30 to 5.80

* * *

test system: aCD3/aCD28-stimulated human PBMCs; experiment: Cytokine production in aCD3/aCD28 stimulated human PBMCs; type: cell-based; conditions: PBMC, enhancement of IL-2 production, 18 h, read-out: Activity Class IL-2
Structures can show the parent of a compound that is named as a salt.
measured.endpoint: EC50

Here is how some molecules turned out for EC50.
[[record]]
molecule = "N[C@H]1CS(=O)(=O)c2cc(Cl)c(C(=O)NCCCC(F)(F)F)cc2N(Cc2ccc(Cl)cc2)C1=O"
target_or_test_system = "aCD3/aCD28-stimulated human PBMCs"
data_value = "1.58 to 5.01 µM"

[[record]]
molecule = "COc1ccc(CN2C(=O)[C@@H](N)CS(=O)(=O)c3ccc(C(=O)NCCCC(F)(F)F)cc32)cc1"
target_or_test_system = "aCD3/aCD28-stimulated human PBMCs"
data_value = "1.58 to 5.01 µM"

[[record]]
molecule = "COc1ccc(CNC(=O)c2ccc3c(c2)N(Cc2ccccc2)C(=O)[C@@H](N)CS3(=O)=O)cc1"
target_or_test_system = "aCD3/aCD28-stimulated human PBMCs"
data_value = "> 5.01 µM"

[[record]]
molecule = "Cl.N[C@H]1CSc2ccc(C(=O)NCC3CCOCC3)cc2N(Cc2ccc(Cl)cc2)C1=O [Example 23, hydrochloride]"
target_or_test_system = "aCD3/aCD28-stimulated human PBMCs"
data_value = "> 5.01 µM"

[[record]]
molecule = "Cl.N[C@H]1CSc2cc(F)c(C(=O)NCc3ccc(F)cc3)cc2N(Cc2ccc(Cl)cc2)C1=O [Example 39, hydrochloride]"
target_or_test_system = "aCD3/aCD28-stimulated human PBMCs"
data_value = "1.58 to 5.01 µM"

[[record]]
molecule = "CCCCNC(=O)c1ccc2c(c1)N(Cc1ccc(-n3cncn3)cc1)C(=O)[C@@H](N)CS2.Cl [Example 46, hydrochloride]"
target_or_test_system = "aCD3/aCD28-stimulated human PBMCs"
data_value = "> 5.01 µM"


Next item in the queue.
Request: So what does the record say about EC50 for N[C@H]1CSc2cc(F)c(C(=O)NCc3ccccc3)cc2N(Cc2ccc(F)cc2)C1=O [Example 132, hydrochloride] ?
Result: > 5.01 µM

* * *

Test system: CD4 T cells
Assay: CD69 expression on aCD3/aCD28 stimulated isolated human CD4 T cells (flow cytometry)
Assay type: cell-based
Details: 24 h after TCR stimulation, read-out: Activity Class CD69 (CD4)
Procedure: Isolated T cells were plated in Xvivo medium at 1.5*10 ^5 cells per in 96 well culture plates and TCR-stimulated with anti-CD3/28 mAbs in the presence of compound as indicated. Cytokine production was determined at 24 h or 48 h following TCR stimulation in cell culture supernatants using commercially available ELISA kits (BD and eBioscience) as recommended by the manufacturer. […]
// reported EC50 for each item listed

Request: So what does the record say about EC50 for Cl.N[C@H]1CS(=O)(=O)c2cc(F)c(C(=O)NCC3CCOCC3)cc2N(Cc2ccc(OC(F)(F)F)cc2)C1=O [Example 72, hydrochloride] ?
Result: < 1580 nM

* * *

Test system: aCD3/aCD28-stimulated human PBMCs
Experiment: Cytokine production in aCD3/aCD28 stimulated human PBMCs
Format: cell-based
Conditions: PBMC, enhancement of IL-2 production, 18 h, read-out: Activity Class IL-2
Experimental: In order to determine the immune modulatory effect of compounds of compounds of the present invention in human PBMCs, compounds were assessed in the following assay set-up: […] 1e6 cells/mL were stimulated with soluble anti CD3/CD28 antibodies (1 μg/mL both, clones OKT3 and 28.2) in the presence of described compounds. […] Cytokine concentration in tissue culture supernatants were determined with MSD or HTRF kits (MSD and Cisbio), according to manufacturer's instructions.
Counter-ions that a name gives are not always drawn.
measured.endpoint: EC50

[[record]]
compound = "N[C@H]1CS(=O)(=O)c2cc(F)c(C(=O)NCc3ccc(F)cc3)cc2N(Cc2nnc(C3CC3)s2)C1=O [Example 138, hydrochloride]"
target_or_test_system = "aCD3/aCD28-stimulated human PBMCs"
measured_endpoint = "EC50"
data_value = "> 5.01 µM"


Request: So what does the record say about EC50 for CCCC(=O)NNC(=O)c1ccc2c(c1)N(Cc1ccc(Cl)cc1)C(=O)[C@@H](N)CS2.Cl [Example 53, hydrochloride] ?
Result: > 5.01 µM

Request: Can you check COc1ccc(CNC(=O)c2ccc3c(c2)N(Cc2ccc(OC(F)(F)F)cc2)C(=O)[C@@H](N)CS3)cc1.Cl [Example 7, hydrochloride] next?
Result: 1.58 to 5.01 µM

Request: Can you check N[C@H]1CSc2cc(F)c(C(=O)NC3CC(F)(F)C3)cc2N(Cc2ccc(Cl)cc2)C1=O [Example 128, hydrochloride] next?
Result: 1.58 to 5.01 µM

Request: Can you check N[C@H]1CS(=O)(=O)c2ccc(C(=O)NC3CC(F)(F)C3)cc2N(Cc2ccccc2F)C1=O next?
Result: > 5.01 µM

Request: Can you check N[C@H]1CS(=O)(=O)c2ccc(C(=O)NC3CC4(COC4)C3)cc2N(Cc2ccc(Cl)cc2)C1=O next?
Result: > 5.01 µM

Request: Can you check N[C@H]1CS(=O)(=O)c2ccc(C(=O)NCC3CC(F)(F)C3)cc2N(Cc2ccc(Cl)cc2)C1=O next?
Result: < 1.58 µM

* * *

system: aCD3/aCD28-stimulated human PBMCs; test: Cytokine production in aCD3/aCD28 stimulated human PBMCs; type: cell-based; conditions: PBMC, enhancement of IL-2 production, 18 h, read-out: Activity Class IL-2
pEC50: −log10 of the molar value. Counter-ions that a name gives are not always drawn.
// reported pEC50 for each item listed

Here is how some molecules turned out for pEC50.
[[record]]
molecule = "Cl.N[C@H]1CSc2cc(F)c(C(=O)NCc3ccc(F)cc3)cc2N(Cc2nnc(C3CC3)s2)C1=O [Example 113, hydrochloride]"
target_or_test_system = "aCD3/aCD28-stimulated human PBMCs"
data_value = "< 5.30"

[[record]]
molecule = "Cl.N[C@H]1CS(=O)(=O)c2cc(F)c(C(=O)N[C@H]3CC3(F)F)cc2N(Cc2ccc(Cl)cc2)C1=O (single isomer, unassigned) [Example 107, hydrochloride]"
target_or_test_system = "aCD3/aCD28-stimulated human PBMCs"
data_value = "> 5.80"

[[record]]
molecule = "CCCCNC(=O)c1cc2c(cc1F)S(=O)(=O)C[C@H](N)C(=O)N2Cc1ccc(F)cc1 [Example 133, hydrochloride]"
target_or_test_system = "aCD3/aCD28-stimulated human PBMCs"
data_value = "5.30 to 5.80"

[[record]]
molecule = "CCCCNC(=O)c1cc2c(cc1F)SC[C@H](N)C(=O)N2Cc1ccc(OC(F)(F)F)cc1.Cl [Example 5, hydrochloride]"
target_or_test_system = "aCD3/aCD28-stimulated human PBMCs"
data_value = "< 5.30"


Request: So what does the record say about pEC50 for C=CCCNC(=O)c1ccc2c(c1)N(Cc1ccc(Cl)cc1)C(=O)[C@@H](N)CS2(=O)=O.Cl [Example 84, hydrochloride] ?
Result: 5.30 to 5.80

Request: Can you check Cl.N[C@H]1CSc2ccc(C(=O)NCC3CCOCC3)cc2N(Cc2ccc(OC(F)(F)F)cc2)C1=O [Example 30, hydrochloride] next?
Result: 5.30 to 5.80

* * *

tested on: aCD3/aCD28-stimulated human PBMCs; assay: Cytokine production in aCD3/aCD28 stimulated human PBMCs; format: cell-based; conditions: PBMC, enhancement of IL-2 production, 18 h, read-out: Activity Class IL-2
pEC50: −log10 of the molar value. Structures can show the parent of a compound that is named as a salt.
// reported pEC50 for each item listed

Here is how some compounds turned out for pEC50.
[[record]]
compound = "CCCCNC(=O)c1ccc2c(c1)N(Cc1ccc(Cl)cc1)C(=O)[C@@H](N)CS2.Cl [Example 10, hydrochloride]"
target_or_test_system = "aCD3/aCD28-stimulated human PBMCs"
measured_endpoint = "pEC50"
data_value = "< 5.30"

[[record]]
compound = "N[C@H]1CS(=O)(=O)c2cc(F)c(C(=O)NC3CC3(F)F)cc2N(Cc2ccc(Cl)cc2)C1=O (stereo partly drawn) [Example 1, hydrochloride]"
target_or_test_system = "aCD3/aCD28-stimulated human PBMCs"
measured_endpoint = "pEC50"
data_value = "> 5.80"


Request: So what does the record say about pEC50 for COc1ccc(CN2C(=O)[C@@H](N)CS(=O)(=O)c3ccc(C(=O)NC4CCC(F)(F)CC4)cc32)cc1 ?
Result: < 5.30

Request: Can you check CCNC(=O)c1ccc2c(c1)N(Cc1ccc(OC(F)(F)F)cc1)C(=O)[C@@H](N)CS2.Cl [Example 18, hydrochloride] next?
Result: 5.30 to 5.80
